This section presents binders with their documented Avg. IC50, hemolysis assay (C5 depleted sera + purified human C5) values.
target: human C5 protein (human, UniProt P01031 19-673; P01031 678-1676); experiment: cell-based or functional assay
Starred links: 1 amine or outer side, 2 acyl side, 3 side chain; linkers in the order of their positions; H or OH if unused. Positions of bridges follow the written chain, without caps; N, C: chain ends. Non-standard residues stand in square brackets, D forms with d. Primed or numbered codes have the meaning given here. No end group written: not given here. mXylyl(3) = bridging moiety between the two residues given in brackets; Phe(3-CH2NH2) = O=C([C@H](Cc1cccc(CN[*:3])c1)N[*:1])[*:2]; Trp(7-aza) = N[C@@H](Cc1c[nH]c2ncccc12)C(=O)O; NMeD = CN[C@@H](CC(=O)O)C(=O)O; Chg = N[C@H](C(=O)O)C1CCCCC1; Tle = CC(C)(C)[C@H](N)C(=O)O; Nva = CCC[C@H](N)C(=O)O; Thp = NC1(C(=O)O)CCOCC1
parameter: Avg. IC50, hemolysis assay (C5 depleted sera + purified human C5)

binder	test value
Ac-CVERFC[Thp][Tle]Y[Trp(7-aza)]EYP[Chg][Nva] (linker 1-6 via mXylyl(3)) [R3186]	18 nM
Ac-KVERFD[NMeD][Tle]Y[Trp(7-aza)]EYP[Chg]K-NH2 (lactam 1-6; SMILES CC(=O)N[C@H]1CCCCNC(=O)C[C@@H](C(=O)N(C)[C@@H](CC(=O)O)C(=O)N[C@H](C(=O)N[C@@H](Cc2ccc(O)cc2)C(=O)N[C@@H](Cc2c[nH]c3ncccc23)C(=O)N[C@@H](CCC(=O)O)C(=O)N[C@@H](Cc2ccc(O)cc2)C(=O)N2CCC[C@H]2C(=O)N[C@H](C(=O)N[C@@H](CCCCN)C(N)=O)C2CCCCC2)C(C)(C)C)NC(=O)[C@H](Cc2ccccc2)NC(=O)[C@H](CCCNC(=N)N)NC(=O)[C@H](CCC(=O)O)NC(=O)[C@H](C(C)C)NC1=O) [R3192]	1.5 nM
Ac-CVERFCD[Tle]Y[Phe(3-CH2NH2)]EYP[Chg][Nva] (linker 1-6 via mXylyl(3)) [R3181]	1500 nM
